# Experimental System: A₂ receptor (Rattus norvegicus, UniProt P30543)
# Construct: from tissue; host or cells: rat corpus striatum membrane preparation
# Sequence (P30543 whole entry): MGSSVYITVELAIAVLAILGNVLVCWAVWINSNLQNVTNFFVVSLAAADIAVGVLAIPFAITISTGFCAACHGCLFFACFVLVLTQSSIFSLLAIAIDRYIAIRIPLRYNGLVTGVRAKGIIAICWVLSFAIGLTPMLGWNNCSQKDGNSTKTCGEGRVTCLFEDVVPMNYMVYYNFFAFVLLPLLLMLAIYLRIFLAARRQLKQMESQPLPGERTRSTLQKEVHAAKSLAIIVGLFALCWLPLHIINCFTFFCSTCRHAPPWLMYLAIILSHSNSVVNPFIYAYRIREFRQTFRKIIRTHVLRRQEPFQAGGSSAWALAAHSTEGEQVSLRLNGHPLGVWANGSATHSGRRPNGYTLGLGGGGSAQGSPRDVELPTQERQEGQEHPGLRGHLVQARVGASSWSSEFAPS
# Test Summary: Adenosine A₂ receptor binding test (³H-CGS 21680 binding)
# Measurement Context: 10^-6M; [^3H]CGS 21680 was used, rat corpus striatum; read-out: A2 Receptor Inhibition (%)
Measurement Kind: inhibition at 1 µM (%)
Write it as a number; the unit % goes unstated.

CCn1c(=O)c2c(nc(/C=C/c3ccc(O)cc3)n2C)n(CC)c1=O ... 95
CCn1c(=O)c2c(nc(/C=C/c3cc(OC)c4c(c3)OCO4)n2C)n(CC)c1=O ... 84
CCn1c(=O)c2c(nc(/C=C/c3ccc(OC)c(C)c3)n2C)n(CC)c1=O ... 99

Sample CCn1c(=O)c2c(nc(/C=C/c3cccc(Oc4ccccc4)c3)n2C)n(CC)c1=O ; inhibition at 1 µM observed: 75

Sample CCn1c(=O)c2c(nc(/C=C/c3ccc(OCOC)cc3)n2C)n(CC)c1=O ; inhibition at 1 µM observed: 98

Sample CCn1c(=O)c2c(nc(/C=C/c3ccc(Br)cc3)n2C)n(CC)c1=O ; inhibition at 1 µM observed: 89

Sample CCn1c(=O)c2c(nc(/C=C/c3cccc(Br)c3)n2C)n(CC)c1=O ; inhibition at 1 µM observed: 103

Sample CCn1c(=O)c2c(nc(/C=C/c3cccc(OC(F)(F)F)c3)n2C)n(CC)c1=O ; inhibition at 1 µM observed: 86

Sample CCn1c(=O)c2[nH]c(/C=C/c3cccc([N+](=O)[O-])c3)nc2n(CC)c1=O ; inhibition at 1 µM observed: 78

Sample CCn1c(=O)c2c(nc(/C=C/c3cc4c(cc3Br)OCO4)n2C)n(CC)c1=O ; inhibition at 1 µM observed: 101

Hello, the source for this data is patent EP0590919A1, in case you need it.
